This collection of values is drawn from patent US9120749B2.

Readings of log10 IC50 for the listed compounds
Test system: T47D cells
Assay: Cell-based assay: anti-proliferative activity, Cell Counting Kit-8, 72 hours (T47D)
Details: Homo sapiens, T47D, 72 h
Values below are the log10 of the recorded IC50, with µM as the unit.

Consider the following illustrative entries.
{"columns": ["compound", "meas.value"],
 "data": [
  ["O=C(c1cnc2ccc(-c3cc(Cl)c(O)c(Cl)c3)cc2c1N1CCC(CCN2CCCC2)CC1)C1CC1", -0.30],
  ["COc1cc(-c2ccc3ncc(C(=O)C4CC4)c(NC4C[C@H]5CC[C@@H](C4)N5)c3c2)cc(Cl)c1O (stereo partly shown)", -0.77]
]}

// next item, log10 IC50 requested
Lab request: please report log10 IC50 under test system T47D cells for COc1cc(-c2ccc3ncc(C(=O)C4CC4)c(Nc4ccc(OCCN)nc4)c3c2)cc(Cl)c1O
-0.72

###

Tested on: T47D cells
Assay: Cell-based assay: anti-proliferative activity, Cell Counting Kit-8, 72 hours (T47D)
Settings: Homo sapiens, T47D, 72 h
Where a name gives a salt, the structure may show the parent alone.
Could you mark each record Met if its IC50 falls strictly under 0.2 µM, and Not met if it equals or exceeds it?

{"columns": ["compound", "category.label"],
 "data": [
  ["CC(=O)c1cnc2ccc(-c3cc(Cl)c(O)c(Cl)c3)cc2c1Nc1ccc(CCN(C)C)cc1 [Example 744]", "Met"]
]}

Does the reported IC50 of the following compound sit strictly below 0.2 µM? CC(=O)c1cnc2ccc(-c3cc(F)c(O)c(Cl)c3)cc2c1N[C@H]1CC[C@H](CN2CCCC(N)C2)CC1 (stereo partly drawn) [Example 818]
Met

Check CC(=O)c1cnc2ccc(-c3cc(F)c(O)c(Cl)c3)cc2c1N[C@@H]1CCC[C@@H](CN(C)C)C1 [Example 751] too.
Not met

Check O=C(c1cnc2ccc(-c3ccc(O)c(Cl)c3)cc2c1Nc1cnn(C2CCNCC2)c1)C1CC1 [Example 519] too.
Met

Check COc1cc(-c2ccc3ncc(C(=O)C(C)C)c(N[C@H]4CC[C@H](N)CC4)c3c2)cc(Cl)c1O [Example 502] too.
Met

Check CC(=O)c1cnc2ccc(-c3cc(Cl)c(O)c(Cl)c3)cc2c1N[C@H]1CCC[C@H](CCN(C)C)C1 [Example 861, hydrochloride] too.
Not met

Check CN[C@H]1CC[C@H](Nc2c(C(=O)C3CC3)cnc3ccc(-c4cc(Cl)c(O)c(OC)c4)cc23)CC1 [Example 517] too.
Met

Check CCCC(=O)c1cnc2ccc(-c3cc(Cl)c(O)c(OC)c3)cc2c1N[C@H]1CC[C@H](N)CC1 [Example 529] too.
Met

Check CN(C)C1CCN(C[C@H]2CC[C@H](Nc3c(C(=O)C4CC4)cnc4ccc(-c5cc(Cl)c(O)c(Cl)c5)cc34)CC2)C1 (stereo partly drawn) [Example 663] too.
Not met

Check O=C(c1cnc2ccc(-c3cc(F)c(O)c(Cl)c3)cc2c1N[C@H]1CC[C@H](CN2CCC(O)C2)CC1)C1CC1 (stereo partly drawn) [Example 631] too.
Met

Check CC(=O)c1cnc2ccc(-c3cc(Cl)c(O)c(Cl)c3)cc2c1Nc1cccc(CCN(C)C)c1 [Example 729] too.
Not met

Check COc1cc(-c2ccc3ncc(C#N)c(N4CCC(CN5CCCC5)CC4)c3c2)cc(Cl)c1O [Example 428] too.
Not met

Check O=C(c1cnc2ccc(-c3cc(Cl)c(O)c(Cl)c3)cc2c1Nc1cccc(CCN2CCCC2)c1)C1CC1 [Example 797] too.
Not met

Check CC(=O)c1cnc2ccc(-c3cc(Cl)c(O)c(Cl)c3)cc2c1N[C@H]1CC[C@H](CN2CCC[C@@H]2CO)CC1 [Example 812] too.
Met

Check CN(C)CC1CCN(c2c(C(=O)C3CC3)cnc3ccc(-c4ccc(C(=O)O)cc4)cc23)CC1 [Example 492] too.
Not met
